Test system: B/Lee/40 (type B)
METHOD_SUMMARY: microbe, parasite or virus in culture
Format: cell-based
DETAILS: Influenza B virus, MDCK
OBSERVABLE: EC50 (nM)

1) O=C1/C(=C/c2ccc(-c3ccc(F)cc3)o2)SC(=S)N1C1CCCCC1 [A1]
1

* * *

Test system: A/Udorn/72 (H3N2)
METHOD_SUMMARY: microbe, parasite or virus in culture
Type: cell-based, influenza virus
pEC50: −log10 of the molar value.
OBSERVABLE: pEC50

1. O=C1/C(=C/c2ccc(-c3ccc(F)cc3)o2)SC(=S)N1C1CCCCC1
9.40
